biological target: p53-Y220C (Homo sapiens, UniProt P04637, M133L/N239Y/N268D/V203A/Y220C); construct: (residues 94-312); 6xHis/lipoyl domain/TEV protease cleavage site (N, cleaved yes); made in house; host or cells: E. coli C41; assay: Differential scanning fluorimetry (DSF); type: binding; conditions: 100 μM compound; 8 µM p53-Y220C; read-out: Protein thermal stability ΔTm

{"Structure as smiles": "CS(=O)(=O)c1ncccn1", "Unit symbol": "°C", "ΔTm at 100 µM": -0.2}
{"Structure as smiles": "COC(=O)c1ccnc(S(C)(=O)=O)n1", "Unit symbol": "°C", "ΔTm at 100 µM": 0.4}
{"Structure as smiles": "CS(=O)(=O)c1nccc(C(F)(F)F)n1", "Unit symbol": "°C", "ΔTm at 100 µM": 1.8}
{"Structure as smiles": "CCCCS(=O)(=O)c1ncccn1", "Unit symbol": "°C", "ΔTm at 100 µM": 0}
{"Structure as smiles": "CS(=O)(=O)c1ncc(-c2ccccc2)cn1", "Unit symbol": "°C", "ΔTm at 100 µM": 0.2}
{"Structure as smiles": "O=S(=O)(CC(F)(F)F)c1ncccn1", "Unit symbol": "°C", "ΔTm at 100 µM": 1.8}
{"Structure as smiles": "CS(=O)(=O)c1ncc(C(=O)O)cn1", "Unit symbol": "°C", "ΔTm at 100 µM": 3}
{"Structure as smiles": "CS(=O)(=O)c1ncc(I)cn1", "Unit symbol": "°C", "ΔTm at 100 µM": 0.4}
{"Structure as smiles": "CS(=O)(=O)c1ncc(Br)cn1", "Unit symbol": "°C", "ΔTm at 100 µM": 0.4}
{"Structure as smiles": "O=S(=O)(Oc1c(F)c(F)c(F)c(F)c1F)c1ncccn1", "Unit symbol": "°C", "ΔTm at 100 µM": 0.4}
{"Structure as smiles": "Cc1ccnc(S(C)(=O)=O)n1", "Unit symbol": "°C", "ΔTm at 100 µM": -0.2}
{"Structure as smiles": "CS(=O)(=O)c1nccc(N)n1", "Unit symbol": "°C", "ΔTm at 100 µM": -0.2}
{"Structure as smiles": "COc1ccnc(S(C)(=O)=O)n1", "Unit symbol": "°C", "ΔTm at 100 µM": 0.2}
